Target: UniProt Q9H3N8
Sequence (Q9H3N8 whole entry): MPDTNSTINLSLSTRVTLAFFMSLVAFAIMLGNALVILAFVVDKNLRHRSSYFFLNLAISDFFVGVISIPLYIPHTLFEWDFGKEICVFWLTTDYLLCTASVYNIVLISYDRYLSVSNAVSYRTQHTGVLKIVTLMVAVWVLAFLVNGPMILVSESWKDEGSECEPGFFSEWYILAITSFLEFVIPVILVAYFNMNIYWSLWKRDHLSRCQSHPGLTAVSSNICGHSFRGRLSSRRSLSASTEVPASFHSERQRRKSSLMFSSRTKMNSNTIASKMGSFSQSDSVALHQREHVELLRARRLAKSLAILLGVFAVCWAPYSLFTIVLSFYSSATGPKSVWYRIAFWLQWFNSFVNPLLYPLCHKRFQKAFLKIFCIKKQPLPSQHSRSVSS
Experiment: Binding assay on recombinant human histamine H4 receptor ([3H]histamine competition, SK-N-MC cell membranes)
Conditions: membranes harvested with cell harvester; [3H]histamine 10 nM; average of results; read-out: Cell Harvester Ki
For each of the molecules below, state its Ki.
Number in nM, nothing else.

So what's the measured Ki for this one? c1nnc(NC2CC3CCC2C3)cc1N1CCCNCC1 (stereo not shown) [Example 308]
18.4

Please answer likewise for CC(C)(CO)CNc1nccc(N2CC3CCN[C@H]3C2)n1 (stereo in doubt) [Example 148]
250

Please do the same for CN1CCN(c2ccnc(NCC3CC3)n2)CC1 [Example 45] as well.
7.1

What would you report for CN(CCN)c1cnnc(NCC2CCCC2)c1 [Example 303] ?
417

Moving on to CNC1CN(c2ccnc(NCC3CCCCC3)n2)C1 [Example 102]
45.9

Entry to check: c1cc(N2CCNCC2)cc(NCC2CCCC2)n1 [Example 311]
226

Note, next up: CN[C@@H]1CCN(c2ccnc(NCC3CC3)c2)C1 [Example 4, ditrifluoroacetate]
4.9

# iterate: C[C@@H]1[C@@H](Nc2nccc(N3CC[C@@H](N)C3)n2)C[C@H]2C[C@@H]1C2(C)C [Example 116]
7.53

And the next one, CNC1CN(c2ccnc(NCc3ccccc3)c2)C1 [Example 285] ?
141

Next: NC1CN(c2ccnc(NC3CC4CCC3C4)n2)C1 (stereo not shown) [Example 87]
33.7

Next molecule: CCCCNc1cc(N2CC[C@@H](NC)C2)cnn1 [Example 100]
31

Quick one: N[C@@H]1CCN(c2cnnc(NCC3CC4CCC3C4)c2)C1 (stereo partly shown) [Example 312]
547

Would you mind doing N[C@H]1CCN(c2ccnc(NCc3ccc(F)cc3)c2)C1 [Example 263] as well?
3090

Could you do the same for N[C@@H]1CCN(c2ccnc(NC3CCCC3)c2)C1 [Example 292] , please?
7.01

Proceed to N[C@@H]1CCN(c2ccnc(NCCCO)n2)C1 [Example 154]
204

Try this molecule next: COc1ccc(CNc2nccc(N3CC[C@@H](N)C3)n2)cc1 [Example 185]
1730

Repeat with CN[C@@H]1CCN(c2ccnc(NCc3ccccc3)c2)C1 [Example 11]
12.9

Entry to check: N[C@@H]1CCN(c2cnnc(NC3CCCC3)c2)C1 [Example 368]
290

Again, but for CN[C@H]1CCN(c2cnnc(NCC(C)(C)CO)c2)C1 [Example 383]
596
